Just for reference, patent US11078192B2 is where these values come from.

Listed next: entries and their corresponding IC50.
Molecular target: PD-1/PD-L1 (Homo sapiens (Human))
Assay: Homogeneous Time-Resolved Fluorescence (HTRF) binding assay
Conditions: CisBio kit #64CUS000C-1, read-out: IC50 of compounds binding to PD-1/PD-L1
Provide the reading as a plain figure in nM.

Smi: COc1cc(/C=C/c2cccc(-c3ccc4c(c3)OCCO4)c2C)ccc1CN[C@@H](CO)C(=O)O
Measured endpoint: IC50
Value measured: 120

--- query ---
I have this compound here, Cc1cc(CN2CCC[C@H]2CO)ccc1/C=C/c1cccc(-c2ccccc2)c1C , and I need its recorded IC50.
410

* * *

Molecular target: PD-1/PD-L1 (Homo sapiens (Human), UniProt Q9NZQ7)
Sequence (Q9NZQ7 19-238): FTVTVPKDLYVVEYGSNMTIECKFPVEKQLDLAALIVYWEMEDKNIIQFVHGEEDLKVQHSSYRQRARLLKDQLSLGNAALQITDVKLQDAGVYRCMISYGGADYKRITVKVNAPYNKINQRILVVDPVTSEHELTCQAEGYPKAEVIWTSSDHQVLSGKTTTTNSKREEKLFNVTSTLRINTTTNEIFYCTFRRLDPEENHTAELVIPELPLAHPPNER
Assay: Homogeneous Time-Resolved Fluorescence (HTRF) binding assay
Conditions: CisBio kit #64CUS000C-1, read-out: IC50 of compounds binding to PD-1/PD-L1
Measured endpoint: IC50 (nM)
Provide the reading as a plain figure in nM.

Here is how some molecules turned out for IC50.
Molecule: Cc1cc(CN2CCCC(O)C2C(=O)O)ccc1/C=C/c1cccc(-c2ccccc2)c1C (centres unmarked)
Test target: PD-1/PD-L1 (Homo sapiens (Human), UniProt Q9NZQ7)
Unit abbreviation: nM
Value measured: 330
--
Molecule: COc1cc(/C=C/c2cccc(-c3ccccc3)c2C#N)cc(OC)c1CN1CCC[C@H]1CO
Test target: PD-1/PD-L1 (Homo sapiens (Human), UniProt Q9NZQ7)
Unit abbreviation: nM
Value measured: 390
--
Molecule: Cc1c(/C=C/c2ccc(CN3CCCC(O)C3C(=O)O)cc2F)cccc1-c1ccccc1 (centres unmarked)
Test target: PD-1/PD-L1 (Homo sapiens (Human), UniProt Q9NZQ7)
Unit abbreviation: nM
Value measured: 780

--- query ---
I have this molecule here, COc1cc(/C=C/c2cccc(-c3ccc4c(c3)OCCO4)c2C)cc(OC)c1CNC(CO)C(=O)O (centres unmarked) , and I need its recorded IC50.
100
